Attribution: patent US9975878B2

Tested on: Bmi-1 protein
Experiment: Sandwich ELISA Assay: Bmi-1 protein level in HT-1080 cells treated with test compounds
Type: cell-based
Kindly state EC50 for each of the entries shown.

Prompt line: For Cc1nc2ncc(Br)cc2n1-c1nc(N)nc(Nc2ccc(OC(F)F)c(F)c2)n1 , write its EC50.
Response line: 10 to 100 nM

Prompt line: For Cc1nc2ncc(Cl)cc2n1-c1nc(N)nc(Nc2ccc(OC(F)F)c(F)c2)n1 , write its EC50.
Response line: 10 to 100 nM

Prompt line: For Cc1nc2c(F)cc(F)cc2n1-c1nc(N)nc(Nc2ccc(Cl)c(F)c2)n1 , write its EC50.
Response line: 100 to 3000 nM

Prompt line: For CCc1nc2ccccc2n1-c1cnnc(Nc2ccc(OC)cc2)n1 , write its EC50.
Response line: 1 to 10 nM

Prompt line: For Nc1nc(Nc2ccc(C(F)(F)F)cc2)nc(-n2c(C3CC3)nc3cc(F)ccc32)n1 , write its EC50.
Response line: 100 to 3000 nM

Prompt line: For Cc1nc2cc(F)c(F)cc2n1-c1nc(N)nc(Nc2ccc(Br)cc2)n1 , write its EC50.
Response line: 10 to 100 nM

Prompt line: For Nc1nc(Nc2ccc(OC(F)F)c(F)c2)nc(-n2c(C3CC3)nc3c(F)cccc32)n1 , write its EC50.
Response line: 10 to 100 nM

Prompt line: For Cc1nc2ncc(Cl)cc2n1-c1nc(NCCO)nc(Nc2ccc(C(F)(F)F)cc2)n1 , write its EC50.
Response line: 100 to 3000 nM

Prompt line: For COc1ccc(Nc2nc(N)nc(-n3c(C)nc4ccccc43)n2)cc1 , write its EC50.
Response line: 1 to 10 nM

* * *

MEASURED_ENDPOINT: melting point

Prompt line: For Nc1nc(Nc2ccc(OC(F)F)c(F)c2)nc(-n2c(C3CC3)nc3c(F)cc(F)cc32)n1 , write its melting point.
Response line: 196 to 198 °C

Prompt line: For Nc1nc(Nc2ccc(OC(F)F)c(F)c2)nc(-n2c(CF)nc3ccccc32)n1 , write its melting point.
Response line: 166 to 168 °C

Prompt line: For Nc1nc(Nc2ccc(OC(F)(F)F)cc2)nc(-n2c(C(F)F)nc3ccccc32)n1 , write its melting point.
Response line: 138 to 139 °C

* * *

Test system: Bmi-1 protein
Assay: Sandwich ELISA Assay: Bmi-1 protein level in HT-1080 cells treated with test compounds
Assay type: cell-based
MEASURED_ENDPOINT: EC50

Prompt line: For Nc1nc(Nc2ccc(OC(F)F)cc2)nc(-n2c(C3CC3)nc3ncc(F)cc32)n1 , write its EC50.
Response line: 10 to 100 nM

Prompt line: For Cc1nc2ccc(F)cc2n1-c1nc(N)nc(Nc2ccc(OC(F)F)cc2)n1 , write its EC50.
Response line: 10 to 100 nM

Prompt line: For Cc1nc2ccccc2n1-c1cnnc(Nc2ccc(OC(F)F)cc2)n1 , write its EC50.
Response line: 100 to 3000 nM

Prompt line: For CCc1nn2ccccc2c1-c1nc(N)nc(Nc2ccc(C(F)(F)F)cc2)n1 , write its EC50.
Response line: 100 to 3000 nM

Prompt line: For Cc1nc2ccc(F)cc2n1-c1cnnc(Nc2ccc(OC(F)F)cc2)n1 , write its EC50.
Response line: 10 to 100 nM

Prompt line: For Nc1nc(Nc2ccc(C(F)(F)F)cc2)nc(-n2c(C3CC3)nc3ccccc32)n1 , write its EC50.
Response line: 10 to 100 nM

Prompt line: For Cc1nc2ccccc2n1-c1nc(N)nc(Nc2ccc(OC(F)F)c(F)c2)n1 , write its EC50.
Response line: 10 to 100 nM

Prompt line: For Nc1nc(Nc2ccc(C(F)(F)F)cc2)nc(-n2c(C3CC3)nc3ncc(F)cc32)n1 , write its EC50.
Response line: 100 to 3000 nM

Prompt line: For Nc1nc(Nc2ccc(OC(F)F)cc2)nc(-c2c(C(F)(F)F)nc3ccc(F)cn23)n1 , write its EC50.
Response line: 10 to 100 nM

Prompt line: For CCc1nc2c(F)cc(F)cc2n1-c1nc(N)nc(Nc2ccc(OC(F)F)cc2)n1 , write its EC50.
Response line: 10 to 100 nM

Prompt line: For COc1ccc(Nc2nc(N)nc(-c3c(C(F)(F)F)nc4ccccn34)n2)cc1F , write its EC50.
Response line: 1 to 10 nM

Prompt line: For CCc1nc2ccccc2n1-c1cnnc(Nc2ccc(OC(F)F)cc2)n1 , write its EC50.
Response line: 10 to 100 nM

Prompt line: For Fc1ccc2nc(C3CC3)n(-c3cnnc(Nc4ccc(C(F)(F)F)cc4)n3)c2c1 , write its EC50.
Response line: 100 to 3000 nM

Prompt line: For Cc1nc2ccccc2n1-c1nc(N)nc(Nc2ccc3ncccc3c2)n1 , write its EC50.
Response line: 1 to 10 nM

Prompt line: For CCc1nc2ccccc2n1-c1nc(N)nc(Nc2cccc(C)c2)n1 , write its EC50.
Response line: 100 to 3000 nM

Prompt line: For CCc1nc2ccc(F)cc2n1-c1nc(N)nc(Nc2ccc(OC(F)F)cc2)n1 , write its EC50.
Response line: 10 to 100 nM

Prompt line: For CCc1nc2cc(F)ccc2n1-c1nc(N)nc(Nc2ccc(OC(F)F)cc2)n1 , write its EC50.
Response line: 10 to 100 nM

Prompt line: For COc1ccc(Nc2nc(N)nc(-n3c(C4CC4)nc4c(F)cccc43)n2)cc1 , write its EC50.
Response line: 1 to 10 nM

Prompt line: For Cc1nc2ncc(F)cc2n1-c1nc(N)nc(Nc2ccc(OC(F)F)cc2)n1 , write its EC50.
Response line: 100 to 3000 nM
